Recorded below: IC50, system human renin (Homo sapiens, UniProt P00797).

| structure | IC50 |
| --- | --- |
| CC(C)(C)C(=O)C[C@@H](Cc1ccccc1)C(=O)N[C@@H](Cc1c[nH]cn1)C(=O)N[C@@H](CC1CCCCC1)[C@@H](O)CN1C(=O)c2ccccc2C1=O | 20 nM |
| CN(C[C@H](O)[C@H](CC1CCCCC1)NC(=O)[C@H](Cc1c[nH]cn1)NC(=O)[C@@H](CC(=O)C(C)(C)C)Cc1ccccc1)C(=O)[C@H](Cc1c[nH]cn1)NC(=O)[C@@H](CC(=O)C(C)(C)C)Cc1ccccc1 | 28 nM |
| CN(C[C@H](O)[C@H](CC1CCCCC1)NC(=O)[C@H](Cc1c[nH]cn1)NC(=O)[C@H](Cc1ccccc1)NC(=O)OC(C)(C)C)C(=O)[C@H](Cc1ccccc1)NC(=O)OC(C)(C)C | 15 nM |
| CN(C[C@H](O)[C@H](CC1CCCCC1)NC(=O)[C@H](Cc1c[nH]cn1)NC(=O)[C@H](Cc1ccccc1)NC(=O)OC(C)(C)C)C(=O)[C@H](Cc1c[nH]cn1)NC(=O)[C@H](Cc1ccccc1)NC(=O)OC(C)(C)C | 30 nM |
